Each item that follows carries a reported cytotoxicity at 70.5 h.
experiment: Human HepG2 cell viability assay in 384 well format; format: toxicity, cell-based; design: dose 125 nL, time 70.5 hour; concentration not given beside the values; details: HepG2 cells, read-out: Inhibition
MEASURED_PARAMETER: cytotoxicity at 70.5 h (%)

INSERT INTO assay_data (compound, measured_parameter, value_measured) VALUES
  ('CC(=O)N1CCC1c1cc(N2CCNC(=O)C2)nc(C)n1 (stereo unspecified)', 'cytotoxicity at 70.5 h', -5.23),
  ('O=C(CCc1ccc(F)cc1)NS(=O)(=O)c1ccc2c(c1)OCCCO2', 'cytotoxicity at 70.5 h', 4.05),
  ('O=C(CCOCC(F)(F)F)N1CCCC1c1noc(C2CC2)n1 (stereo unspecified)', 'cytotoxicity at 70.5 h', -8.98),
  ('Cc1cc(C)nc(NC2CCCN(CCCc3ccccc3)C2)n1 (stereo unspecified)', 'cytotoxicity at 70.5 h', 54.5),
  ('CC(C)NC(=O)CNC(C)c1c(F)cccc1Cl (stereo unspecified)', 'cytotoxicity at 70.5 h', -79.9),
  ('CCC[C@H]1CN(C(=O)c2ccc3[nH]c(CO)nc3c2)C[C@@H]1N', 'cytotoxicity at 70.5 h', -27.1),
  ('COCC(=O)N1CCC2(CCC2NS(=O)(=O)c2ccccc2)CC1 (stereo unspecified)', 'cytotoxicity at 70.5 h', 28.8),
  ('COc1cccc(-n2nnc(C(=O)N3CCCC(C)C3)c2C)c1 (stereo unspecified)', 'cytotoxicity at 70.5 h', -10.2),
  ('CCN1C(=O)CCCC12CCCN(C(=O)c1occc1C)C2 (stereo unspecified)', 'cytotoxicity at 70.5 h', -10.4),
  ('c1coc(CNCC2Cn3nncc3CO2)c1 (stereo unspecified)', 'cytotoxicity at 70.5 h', -8.73),
  ('CCCOC(C)C(=O)N1CCC(O)(c2ccc3nc(C)ccc3c2)CC1 (stereo unspecified)', 'cytotoxicity at 70.5 h', -3.14),
  ('Cc1ccc(-c2nc(CCNC(=O)NCC(C)(C)C(N)=O)co2)cc1', 'cytotoxicity at 70.5 h', -0.0567),
  ('Cc1ccc(C(=O)N2CCC3(CCN3Cc3ccc(F)cc3)C2)cn1 (stereo unspecified)', 'cytotoxicity at 70.5 h', -8.15),
  ('Cc1noc(C(C)C)c1C(=O)N1CCCN(Cc2cscn2)CC1', 'cytotoxicity at 70.5 h', 1.02),
  ('O=C(NCc1cccnc1)c1nc2c(s1)CCCN2c1ncccn1', 'cytotoxicity at 70.5 h', 5.15),
  ('Cc1cc(CNc2ccc(-c3nc(C4CC4)no3)cn2)no1', 'cytotoxicity at 70.5 h', -4.31),
  ('Cc1nc2n(n1)CC(NCc1ccc(Cl)c3cccnc13)CC2 (stereo unspecified)', 'cytotoxicity at 70.5 h', -8.23),
  ('O=C(Nc1ccc(F)c(Cl)c1)N1CCCN([C@H]2COC[C@@H]2O)CC1', 'cytotoxicity at 70.5 h', -14.1),
  ('CC(C)CC(=O)N1CCCCC(NC(=O)CCc2cccnc2)C1 (stereo unspecified)', 'cytotoxicity at 70.5 h', -1.04),
  ('COCCCOC1CN(C(=O)c2[nH]nc3c2CCCC3)C1', 'cytotoxicity at 70.5 h', 4),
  ('CS(=O)(=O)NCC(=O)N[C@H]1CN(c2cnccn2)C[C@@H]1C1CC1', 'cytotoxicity at 70.5 h', 9.56);
